- Test system: Hepatitis C virus NS3 helicase
- assay-comment: HCV NS3 helicase inhibitors, primary screen, biochemical, fluorescence polarization, NIH Clinical Collection (AID 743270)
- condition-parameters: NS3 helicase binding to Cy5-dT15 DNA, stronger effect = higher value, concentration not given here
Non-standard residues stand in square brackets, D forms with d. Residues, ends and D or L forms follow the SMILES beside them. pGlu = O=C1CC[C@@H](C(=O)O)N1; Thz = O=C(O)[C@@H]1CSCN1
property-name: inhibition (%)

compound=CC(C)N=c1cc2n(-c3ccc(Cl)cc3)c3ccccc3nc-2cc1Nc1ccc(Cl)cc1 property_name=inhibition readout_value=8.52
compound="CCCCC(=O)OC1(C(=O)CO)CCC2C3CCC4=CC(=O)CCC4(C)C3C(O)CC21C (centres undefined)" property_name=inhibition readout_value=-5.91
compound=CCOC(=O)c1ccc(OC(=O)CCCCCN=C(N)N)cc1 property_name=inhibition readout_value=0.4
compound="CC1CNc2c(cccc2S(=O)(=O)N[C@@H](CCCN=C(N)N)C(=O)N2CC[C@@H](C)C[C@@H]2C(=O)O)C1 (some centres undefined)" property_name=inhibition readout_value=-2.77
compound="CC[C@]1(O)CC2CN(CCc3c([nH]c4ccccc34)[C@@](C(=O)OC)(c3cc4c(cc3OC)N(C=O)[C@H]3[C@@](O)(C(=O)OC)[C@H](OC(C)=O)[C@]5(CC)C=CCN6CC[C@]43[C@@H]65)C2)C1 (some centres undefined)" property_name=inhibition readout_value=-2.84
compound=CC[C@@H]1C(=O)OC[C@@H]1Cc1cncn1C property_name=inhibition readout_value=-5.94
compound=Cc1c(O)c(=O)ccn1C property_name=inhibition readout_value=1.98
compound="O=c1[nH]c(=O)n(C2CC(O)C(CO)O2)cc1F (centres undefined)" property_name=inhibition readout_value=-1.36
compound="CC(Cc1ccc(O)c(O)c1)(NN)C(=O)O (centres undefined)" property_name=inhibition readout_value=-2.27
compound=COc1cc(N)c(Cl)cc1C(=O)N[C@@H]1CCN(CCCOc2ccc(F)cc2)C[C@@H]1OC property_name=inhibition readout_value=-2.77
compound=CN1CCN(c2nc3cc(C(F)(F)F)ccc3n3cccc23)CC1 property_name=inhibition readout_value=-10.7
compound="CCN(CC)CC#CCOC(=O)C(O)(c1ccccc1)C1CCCCC1 (centres undefined)" property_name=inhibition readout_value=-5.91
compound=O=c1c(O[C@@H]2O[C@H](CO)[C@H](O)[C@H](O)[C@H]2O)c(-c2ccc(O)c(O)c2)oc2cc(O)cc(O)c12 property_name=inhibition readout_value=1.98
compound=CO[C@H]1C=CO[C@@]2(C)Oc3c(C)c(O)c4c(O)c(c5c(nc6cc(C)ccn65)c4c3C2=O)NC(=O)C(C)=CC=C[C@H](C)[C@H](O)[C@@H](C)[C@@H](O)[C@@H](C)[C@H](OC(C)=O)[C@@H]1C property_name=inhibition readout_value=1.19
compound="CC12CCC(=O)C=C1CCC1C2CCC2(C)C1CCC2(O)C(=O)CO (centres undefined)" property_name=inhibition readout_value=-4.59
compound=O=C1C(c2c(O)[nH]c3ccccc23)=Nc2ccccc21 property_name=inhibition readout_value=26.5
compound=C[C@@H](c1ncncc1F)[C@](O)(Cn1cncn1)c1ccc(F)cc1F property_name=inhibition readout_value=3.56
compound=COc1nc(C)nc(Cl)c1NC1=NCCN1 property_name=inhibition readout_value=4.36
compound="O=C1CC[C@@H](C(=O)N2CSC[C@H]2C(=O)O)N1 ([pGlu]-[Thz]-OH)" property_name=inhibition readout_value=5.94
compound="CC(=O)SCC(Cc1ccccc1)C(=O)NCC(=O)OCc1ccccc1 (centres undefined)" property_name=inhibition readout_value=3.56
compound=COC(=O)C[C@](O)(CCCC(C)(C)O)C(=O)O[C@@H]1C(OC)=C[C@]23CCCN2CCc2cc4c(cc2[C@H]13)OCO4 property_name=inhibition readout_value=-0.22
compound="Cc1onc(-c2ccccc2)c1C(=O)NC1C(=O)N2C1SC(C)(C)C2C(=O)O (centres undefined)" property_name=inhibition readout_value=-1.36
compound=C[C@]12C=CC(=O)C=C1CC[C@@H]1[C@@H]2[C@@H](O)C[C@@]2(C)[C@H]1CC[C@]2(O)C(=O)COC(=O)CCC(=O)O property_name=inhibition readout_value=7.52
compound=CC1(C)C[C@@H]1C(=O)N/C(=C\CCCCSC[C@H](N)C(=O)O)C(=O)O property_name=inhibition readout_value=0.4
compound=CC[C@H]1OC(=O)[C@H](C)[C@@H](O[C@H]2C[C@@](C)(OC)[C@@H](O)[C@H](C)O2)[C@H](C)[C@@H](O[C@@H]2O[C@H](C)C[C@H](N(C)C)[C@H]2O)[C@](C)(O)C[C@@H](C)CN(C)[C@H](C)[C@@H](O)[C@]1(C)O property_name=inhibition readout_value=1.36
compound=O=C(c1ccc(OCCN2CCCCC2)cc1)c1c(-c2ccc(O)cc2)sc2cc(O)ccc12 property_name=inhibition readout_value=-7.73
compound=CC(=O)NC[C@H]1CN(c2ccc(N3CCOCC3)c(F)c2)C(=O)O1 property_name=inhibition readout_value=6.73
compound=COc1ccc(C[C@H](C)NC[C@@H](O)c2ccc(O)c(NC=O)c2)cc1 property_name=inhibition readout_value=-9.9
compound="OC[C@H]1O[C@@H](n2cnc3c(N[C@H]4CCC[C@@H]4O)ncnc32)[C@@H](O)C1O (some centres undefined)" property_name=inhibition readout_value=-1.09

---

- assay-comment: sensitizers of A549 cells to miR-34 induction, primary screen, imaging, A549 dox-inducible miR-34, nuclei and caspase counts (AID 1347080)
- condition-parameters: A549 miR-34 inducible, Hoechst nuclei count, 48 h; measured here: relative caspase fold change +Dox/-Dox
property-name: fold change

molecule=CCC(C)(C)N=C(NC#N)Nc1cccnc1 property_name="fold change" readout_value=1.24
molecule="C#C[C@]1(O)CCC2C3CCC4=Cc5oncc5C[C@]4(C)C3CC[C@@]21C (some centres undefined)" property_name="fold change" readout_value=2.2
molecule=CN(C)[C@@H]1C(=O)C(C(=O)NCN2CCCC2)=C(O)[C@@]2(O)C(=O)C3=C(O)c4c(O)cccc4[C@@](C)(O)[C@H]3C[C@@H]12 property_name="fold change" readout_value=4.3
molecule="C[C@@H]1CC2C3C[C@H](F)C4=CC(=O)C=C[C@]4(C)[C@@]3(F)[C@@H](O)C[C@]2(C)[C@@]1(O)C(=O)COC(=O)C(C)(C)C (some centres undefined)" property_name="fold change" readout_value=1.19
molecule="CC(=O)O[C@H]1C[C@@]2(C)[C@@H](C[C@@H](O)C3[C@]2(C)CC[C@H]2[C@H](C)[C@H](O)CC[C@]32C)/C1=C(/CCC=C(C)C)C(=O)O (some centres undefined)" property_name="fold change" readout_value=1.7
molecule=CC1=C(/C=C/C(C)=C/C=C/C(C)=C/C=C/C=C(C)/C=C/C=C(C)/C=C/C2=C(C)C(=O)CCC2(C)C)C(C)(C)CCC1=O property_name="fold change" readout_value=1.09
molecule="CO/N=C(/C(=O)NC1C(=O)N2C(C(=O)O)=C(CSc3nnnn3C)CSC12)c1csc(N)n1 (centres undefined)" property_name="fold change" readout_value=0.695
molecule="CC(C)CC1C(=O)N2CCC[C@H]2C2(O)O[C@](NC(=O)C3C=C4c5cccc6[nH]c(Br)c(c56)C[C@H]4N(C)C3)(C(C)C)C(=O)N12 (some centres undefined)" property_name="fold change" readout_value=1.96
molecule="O=C(O)C1CSCN1 (centres undefined)" property_name="fold change" readout_value=0.618
molecule="O=c1[nH]cnc2c1ncn2C1O[C@H](CO)[C@@H](O)[C@H]1O (some centres undefined)" property_name="fold change" readout_value=0.652
molecule="C#C[C@]1(OC(C)=O)CCC2C3CCC4=C/C(=N/O)CCC4C3CC[C@@]21CC (some centres undefined)" property_name="fold change" readout_value=2.93
molecule=CON=C(C(=O)N[C@@H]1C(=O)N2C(C(=O)O)=C(COC(N)=O)CS[C@H]12)c1ccco1 property_name="fold change" readout_value=2.12
molecule="CC(=O)O[C@]1(C(C)=O)CCC2C3C=C(Cl)C4=CC(=O)CC[C@]4(C)C3CC[C@@]21C (some centres undefined)" property_name="fold change" readout_value=1.11
molecule=Nc1ccc(S(=O)(=O)[O-])cc1.Nc1ccc(S(=O)(=O)[O-])cc1.[Zn+2] property_name="fold change" readout_value=2.98
molecule="C[C@H]1O[C@H](O[C@H]2[C@H](O)[C@@H](O)[C@@H](O[C@H]3[C@H](O)[C@@H](O)C(O)O[C@@H]3CO)O[C@@H]2CO)[C@H](O)[C@@H](O)[C@@H]1N[C@H]1C=C(CO)[C@@H](O)[C@H](O)[C@H]1O (some centres undefined)" property_name="fold change" readout_value=4.27
molecule="CC(COc1ccccc1)NC(C)[C@H](O)c1ccc(O)cc1 (some centres undefined)" property_name="fold change" readout_value=1.19
molecule="CC12CCC3c4ccc(O)cc4CCC3C1C[C@H](O)[C@@H]2O (some centres undefined)" property_name="fold change" readout_value=0.736
molecule="CCCCC(=O)OC1(C(=O)CO)CCC2C3CCC4=CC(=O)CCC4(C)C3C(O)CC21C (centres undefined)" property_name="fold change" readout_value=2.66
molecule=CCOc1cc(C(=O)Nc2ccc(Cl)c(-c3nc4ccccc4[nH]3)c2)cc(OCC)c1OCC property_name="fold change" readout_value=0.843
molecule="CCC(=O)OCC(=O)C1(OC(=O)CC)C(C)CC2C3CCC4=CC(=O)C=CC4(C)C3(Cl)C(O)CC21C (centres undefined)" property_name="fold change" readout_value=1.52
molecule=CC(=O)Nc1ccc(S(=O)(=O)Nc2onc(C)c2C)cc1 property_name="fold change" readout_value=5
molecule="CC12CCC3C(=CCc4cc(O)ccc43)C1CCC2=O (centres undefined)" property_name="fold change" readout_value=0.851
molecule="C[C@]12C=CC(=O)C=C1CCC1C3C[C@@H](O)[C@](O)(C(=O)CO)[C@@]3(C)C[C@H](O)[C@@]12F (some centres undefined)" property_name="fold change" readout_value=2.83
molecule="CC1(C)C2CC[C@]3(C)C(C(=O)C=C4[C@@H]5C[C@@](C)(C(=O)O)CC[C@]5(C)CC[C@]43C)[C@@]2(C)CC[C@@H]1OC(=O)CCC(=O)O (some centres undefined)" property_name="fold change" readout_value=2.9
